Test system: ZEAMX (Corn, Field)
TEST_PROTOCOL: Postemergence herbicidal evaluation
Assay type: in vivo, Zea mays
TEST_SETTINGS: postemergence, rate 0.0315 kg/ha
Procedure: In the tests, seedling plants are grown in jiffy flats for about two weeks. The test compounds are dispersed in 50/50 acetone/water mixtures containing 0.5% TWEEN®20, a polyoxyethylene sorbitan monolaurate surfactant of Atlas Chemical Industries, in sufficient quantities to provide the equivalent of about 0.0156 kg to 0.500 kg per hectare of active compound when applied to the plants through a spray nozzle operating at 40 psi for a predetermined time. […]
REPORTED_METRIC: herbicidal rating ZEAMX

INSERT INTO results (compound, assay_value) VALUES
  ('CCOC(=O)CN1C(=O)C(CC(=O)O)SC1=Nc1cc(-n2nc(C)n(C(F)F)c2=O)c(F)cc1Cl (centres unmarked)', 4.5),
  ('CCCCOC(=O)CN1C(=O)CSC1=Nc1cc(-n2c(=O)cc(C(F)(F)F)n(C)c2=O)c(F)cc1Cl', 6.5),
  ('COCCOC(=O)CN1C(=O)CSC1=Nc1cc(-n2c(=O)cc(C(F)(F)F)n(C)c2=O)c(F)cc1Cl', 6.0),
  ('CCOC(=O)CN1C(=O)C(CC(=O)NS(=O)(=O)C(C)C)SC1=Nc1cc(-n2c(=O)cc(C(F)(F)F)n(C)c2=O)c(F)cc1Cl (centres unmarked)', 5.0),
  ('Cn1c(C(F)(F)F)cc(=O)n(-c2cc(N=C3SCC(=O)N3CC(=O)OCC#N)c(Cl)cc2F)c1=O', 6.5);

The measured values listed here are drawn from patent US20020137929A1.
